assay protocol: xn = mol fraction of the nth substance listed
run parameters: 308.15 K, x1 = 0.8
measurement label: surface tension liquid-gas (mN/m)
Answer format: numeric, mN/m implied, no suffix.

-- ask Look up surface tension liquid-gas for this molecule: CCCC(=O)OCCC(C)C [3-methylbutyl butanoate] + CCO
-- reply 23.6

-- ask Look up surface tension liquid-gas for this molecule: CCOC(=O)c1ccccc1 [ethyl benzoate] + CCO
-- reply 30.6

-- ask Look up surface tension liquid-gas for this molecule: CCCCCC(=O)OCC [ethyl hexanoate] + CCO
-- reply 24.1

-- ask Look up surface tension liquid-gas for this molecule: CCCCCCCC(=O)OCC [ethyl octanoate] + CCO
-- reply 25.1

-- ask Look up surface tension liquid-gas for this molecule: CC(=O)OCCC(C)C [3-methylbutyl ethanoate] + CCO
-- reply 23

Okay, next one:
-- ask Look up surface tension liquid-gas for this molecule: CCOC(=O)Cc1ccccc1 [ethyl phenylacetate] + CCO
-- reply 31
